B1: LINE1-mini (parent)
chain: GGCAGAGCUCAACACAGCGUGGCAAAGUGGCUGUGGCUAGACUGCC

Variants of: B1
Assay: self-cleavage, relative activity (ratio to wild type); higher = more cleavage; in vitro, sequencing; the parent is a self-cleaving ribozyme
Exercise: state measured self-cleavage for each of the variants provided.

Enquiry: Quick one: self-cleavage of `GGCAGGGCUCAACACAGCGUGGCAAAGUGGCUGUGGCUAGACUGUC` ?
Return: 0.11

Enquiry: Quick one: self-cleavage of `GGCAGAGCACAACACAGCGUGGCAAAGUGGCUUUGGCUAGACUGCC` ?
Return: 0.07

Enquiry: Quick one: self-cleavage of `GGCAGAGCUCAACACAGCGUGGCAAAGUGGCUGUGGCGAGACUGCA` ?
Return: 0.02

Enquiry: Quick one: self-cleavage of `GGCAGUGCUCAACACAGCGUGGCAACGUGGCUGUGGCUAGACUGCC` ?
Return: 0.56

Enquiry: Quick one: self-cleavage of `GGCAGAGCCCAACACAGCGUGGCAAAGCGGCUGUGGCUAGACUGCC` ?
Return: 0.05

Enquiry: Quick one: self-cleavage of `GGCAGAGCUCAACACAGUGUGGCAGAGUGGCUGUGGCUAGACUGCC` ?
Return: 0.26

Enquiry: Quick one: self-cleavage of `GGCAGAGCUCAACACAGGGUGGCAAAGUGGCUGUGGCUAGCCUGCC` ?
Return: 0.03

Enquiry: Quick one: self-cleavage of `GGCAGAGCUCAACACAGCGUGGCAAAAUGGCUGUGUCUAGACUGCC` ?
Return: 0.08

Enquiry: Quick one: self-cleavage of `GGCCGAGCUCAACACAGCGUGGCAAAGUGGCUGAGGCUAGACUGCC` ?
Return: 0

Enquiry: Quick one: self-cleavage of `GGCAGAGCUCAACACAGCGUGGCAAAGUGGCUUUGGUUAGACUGCC` ?
Return: 0.06

Enquiry: Quick one: self-cleavage of `GGCAGAGCUCAACACAGCGUGGCAAAGCGGCUGUGGCUAGACUGCU` ?
Return: 0.51

Enquiry: Quick one: self-cleavage of `GGCAGAGCUCAACACAGCGUGUCAAAGUGGCUGUGGCUAGACUGCG` ?
Return: 0.91

Enquiry: Quick one: self-cleavage of `GGCAGAGCUCAACUCAGCGUGGCAAAGUGGCUGUGGCUAGACUGAC` ?
Return: 0.07

Enquiry: Quick one: self-cleavage of `GGCAGAGCUCAACUCAGCGUGGCAAAGUGGCUGUGGUUAGACUGCC` ?
Return: 0.03

Enquiry: Quick one: self-cleavage of `GGCAGAGCUCAACACAGGGUGGCAAAGUGGCUGUGGCUAGACUGAC` ?
Return: 0.26

Enquiry: Quick one: self-cleavage of `GGCAGAGCUCAACACAGAGUGGCAAAGUGGCAGUGGCUAGACUGCC` ?
Return: 0.05

Enquiry: Quick one: self-cleavage of `GGCAGAGCUCAACACAUCGUGGCAAACUGGCUGUGGCUAGACUGCC` ?
Return: 0.22

Enquiry: Quick one: self-cleavage of `GGGAGAGCUCAACACAGCGUGGCAAAGUGGCUGUGGCCAGACUGCC` ?
Return: 0.22

Enquiry: Quick one: self-cleavage of `GGCAGAGCUCAUCACAGCGCGGCAAAGUGGCUGUGGCUAGACUGCC` ?
Return: 0.25

Enquiry: Quick one: self-cleavage of `GGCUGAGCUCAACACAGCGUGGCAAAGUGCCUGUGGCUAGACUGCC` ?
Return: 0.21

Enquiry: Quick one: self-cleavage of `GGCAGAGCUCAACACAGCGUGGCAAAGUGUCUGUGCCUAGACUGCC` ?
Return: 0.11

Enquiry: Quick one: self-cleavage of `GGCAGAGCUCAACACAGCGUGGCAAAGUGGCUGCGGCUAGACUGCC` ?
Return: 0.13

Enquiry: Quick one: self-cleavage of `GGCAGAGCUCAACACCGCGUGGCAAAGUGACUGUGGCUAGACUGCC` ?
Return: 0.14

Enquiry: Quick one: self-cleavage of `GGCAGAGCUCAACACAGCGUGGCAAUGUGGCUGAGGCUAGACUGCC` ?
Return: 0.07

Enquiry: Quick one: self-cleavage of `GGCAGAGCUCAACAGAGCGUGGCAAAGUGCCUGUGGCUAGACUGCC` ?
Return: 0.08

Enquiry: Quick one: self-cleavage of `GGCAGAGCUCAACAAAGCGUGGAAAAGUGGCUGUGGCUAGACUGCC` ?
Return: 0.18

Enquiry: Quick one: self-cleavage of `GGCAGAGCUCAACACAGCGUGGCAAAGUGGCUCUGCCUAGACUGCC` ?
Return: 0.04

Enquiry: Quick one: self-cleavage of `GGCAGAGCUCAACAUCGCGUGGCAAAGUGGCUGUGGCUAGACUGCC` ?
Return: 0.13

Enquiry: Quick one: self-cleavage of `GGCAGAGCACAACACAGCGUGGCAAAGUGGAUGUGGCUAGACUGCC` ?
Return: 0.07

Enquiry: Quick one: self-cleavage of `GGCAGAGCUCAACACAGCGUGGCAAAGUGGCUGUGGGUAGAAUGCC` ?
Return: 0.09

Enquiry: Quick one: self-cleavage of `GGCAGAGCUUAACACAGCGUGGCAAAGUGGCUGUAGCUAGACUGCC` ?
Return: 0.08

Enquiry: Quick one: self-cleavage of `GGCAGCGCUCAACACAGCGUGGCAAAGUGGCAGUGGCUAGACUGCC` ?
Return: 0.03

Enquiry: Quick one: self-cleavage of `GGCAGAACUCAACACACCGUGGCAAAGUGGCUGUGGCUAGACUGCC` ?
Return: 0.18

Enquiry: Quick one: self-cleavage of `GGCAGAACUCAACACAGCGUGGCAAAAUGGCUGUGGCUAGACUGCC` ?
Return: 0.06

Enquiry: Quick one: self-cleavage of `GGCAGAGCUCAACACAGCGUGUCAAAGUGGCUGUGGCUAGACUGCA` ?
Return: 1.15

Enquiry: Quick one: self-cleavage of `GGCAGAGCUCAACACAGCAUGGCAAAGUUGCUGUGGCUAGACUGCC` ?
Return: 0.94

Enquiry: Quick one: self-cleavage of `GGUAGAGCUCAACACAGCGUGGCAAAGUGGCUGUGGCUAGACCGCC` ?
Return: 0.09

Enquiry: Quick one: self-cleavage of `GGCAGAGCUCAACACAGCGCGGCAAAGUGGCCGUGGCUAGACUGCC` ?
Return: 0.05

Enquiry: Quick one: self-cleavage of `GGCCGAGCUCAACACAGCGUGUCAAAGUGGCUGUGGCUAGACUGCC` ?
Return: 0.52

Enquiry: Quick one: self-cleavage of `GGCAGAGCUCAACUCAUCGUGGCAAAGUGGCUGUGGCUAGACUGCC` ?
Return: 0.1

Enquiry: Quick one: self-cleavage of `GGAAGAGCUCAACACAGCGUGGCAAAGUGGAUGUGGCUAGACUGCC` ?
Return: 0.16

Enquiry: Quick one: self-cleavage of `GGCAGAGCUCAACGCAGCGUGGCAAAGUGGCUCUGGCUAGACUGCC` ?
Return: 0.03

Enquiry: Quick one: self-cleavage of `GGCAGGGCUCAACACAGCAUGGCAAAGUGGCUGUGGCUAGACUGCC` ?
Return: 0.09

Enquiry: Quick one: self-cleavage of `GGCAGAGCUCAAGACAGCGUGGCAAAGUGGCUGUGGCUAGACAGCC` ?
Return: 0.11

Enquiry: Quick one: self-cleavage of `GGCAGAGCUCAACACAGCGUGGCAAAGUGGCUGUGGAUAGACUGCA` ?
Return: 0.05

Enquiry: Quick one: self-cleavage of `GGCAGAGUUGAACACAGCGUGGCAAAGUGGCUGUGGCUAGACUGCC` ?
Return: 0.02
